# Tested on: morningglory
# procedure summary: Test B pre-/postemergence herbicide test
# Format: in vivo, Ipomoea coccinea
# assay conditions: postemergence, 125 g ai/ha; visual rating, scale 0 (no effect) to 100 (complete control)
The following compounds are listed with their measured Morningglory plant response rating values.
No unit in the answer, please; the number alone is enough.

Field: example entries. Status: answers known.
>  <compound>
CCN(CC)C(=O)c1cccc(NC(=O)c2cc(C(C)(C)C)nn2CC)n1 [Compound 145]

>  <Morningglory plant response rating>
0

$$$$
>  <compound>
C#CCOC(=O)c1cccc(NC(=O)c2cc(C(C)(C)C)nn2CC)c1 [Compound 84]

>  <Morningglory plant response rating>
30

$$$$
>  <compound>
CCn1nc(C(C)(C)C)cc1C(=O)Nc1ccc(F)c(C(=O)NCCF)c1 [Compound 60]

>  <Morningglory plant response rating>
10

$$$$

Tell me the measured Morningglory plant response rating of CCn1nc(C(C)(C)C)cc1C(=O)Nc1nccc(OC)n1 [Compound 165] , please. 0

Morningglory plant response rating for CCn1nc(C(C)(C)C)cc1C(=O)Nc1cccc(OC(F)(F)F)c1 [Compound 272] ? 90

Given the entry CCn1nc(C(C)(C)C)cc1C(=O)Nc1ccnc(C(=O)NCCF)c1 [Compound 284] , report its measured Morningglory plant response rating. 0

Fill in the blank: the reported Morningglory plant response rating of CCn1nc(C(C)(C)C)cc1C(=O)Nc1nc(OC)cc(SCF)n1 [Compound 167] is ____. 0

Which Morningglory plant response rating is reported for this compound? CCn1nc(C(C)(C)C)cc1C(=O)Nc1ccc(C)c(C(=O)OC(C)C)c1 [Compound 100] 0

----------
# Tested on: woolly cupgrass
# procedure summary: Test C pre-/postemergence herbicide test
# Type: in vivo, Eriochloa villosa
# assay conditions: postemergence; 62 g ai/ha; scale 0 to 100
parameter measured: Plant response rating, Cupgrass, Woolly
Form field (numeric): enter value without unit.

>  <substance smiles>
C=CCOC(=O)c1cccc(NC(=O)c2cc(C(C)(C)C)nn2CC)c1

>  <Plant response rating, Cupgrass, Woolly>
40

$$$$
>  <substance smiles>
C#CCOC(=O)c1cccc(NC(=O)c2cc(C(C)(C)C)nn2CC)c1

>  <Plant response rating, Cupgrass, Woolly>
0

$$$$
>  <substance smiles>
CCn1nc(C(C)(C)C)cc1C(=O)Nc1ccc(F)c(C(=O)NCCF)c1

>  <Plant response rating, Cupgrass, Woolly>
0

$$$$

Recorded Plant response rating, Cupgrass, Woolly for CCn1nc(C(C)(C)C)cc1C(=O)Nc1cccc(C(=O)NC2CC2)n1 , please? 10

----------
# System: barnyardgrass
# procedure summary: Test B pre-/postemergence herbicide test
# Assay type: in vivo, Echinochloa crus-galli
# assay conditions: postemergence, 500 g ai/ha; scale 0 to 100, 0 is no effect, 100 is complete control
Values of Barnyardgrass plant response rating strictly less than 20 map to Yes, and values of at least 20 map to No.

Answered examples (7):
>  <compound>
CCn1nc(C(C)(C)C)cc1C(=O)Nc1cncc(C(=O)NCC(F)(F)F)n1 [Compound 291]

>  <assigned class>
No

$$$$
>  <compound>
CCNC(=S)c1ccc(F)c(NC(=O)c2cc(C(C)(C)C)nn2CC)c1 [Compound 349]

>  <assigned class>
Yes

$$$$
>  <compound>
C#CCNC(=O)c1cccc(NC(=O)c2cc(C(C)(C)C)nn2C)n1 [Compound 316]

>  <assigned class>
No

$$$$
>  <compound>
CCc1nn(C2CCCC2)nc1C(=O)Nc1cccc(C(=O)N(C)C)c1 [Compound 355]

>  <assigned class>
Yes

$$$$
>  <compound>
CCn1nc(C(C)(C)C)cc1C(=O)Nc1cccc(OC(C)C)c1 [Compound 273]

>  <assigned class>
No

$$$$
>  <compound>
CCc1cn(C(C)(C)C)nc1C(=O)Nc1cccc(C(=O)N(C)C)n1 [Compound 330]

>  <assigned class>
Yes

$$$$
>  <compound>
C#CCNC(=O)c1cccc(NC(=O)c2nn(C(C)(C)C)nc2CC)c1 [Compound 380]

>  <assigned class>
Yes

$$$$

Okay, next one:
Lab note: confirm whether the reported Barnyardgrass plant response rating for this compound is below 20, equality not counting. compound: CCn1nc(C(C)(C)C)cc1C(=O)Nc1cccc(C(=O)N2CC=CC2)c1 [Compound 286] Yes

----------
Below, each of the molecules is paired with its reported Plant response rating, Pigweed value.
# Tested on: pigweed
# procedure summary: Test C pre-/postemergence herbicide test
# Assay type: in vivo, Amaranthus retroflexus
# assay conditions: 62 g ai/ha; preemergence; scale 0 to 100

Would you please look over these solved cases?
>  <molecule>
CCNC(=O)c1ccnc(NC(=O)c2cc(C(C)(C)C)nn2CC)c1 [Compound 152]

>  <parameter measured>
Plant response rating, Pigweed

>  <result>
85

$$$$
>  <molecule>
CCNC(=O)c1ccc(F)c(N(C(C)=O)C(=O)c2cc(C(C)(C)C)nn2CC)c1 [Compound 399]

>  <parameter measured>
Plant response rating, Pigweed

>  <result>
100

$$$$
>  <molecule>
CCC1=NN(C(C)(C)C)CC1C(=O)Nc1cc(C(=O)N2CC=CC2)ccc1F (racemic) [Compound 340]

>  <parameter measured>
Plant response rating, Pigweed

>  <result>
70

$$$$

In the following, a different molecule is considered.
// returns reported Plant response rating, Pigweed for input CCn1nc(C(C)(C)C)cc1C(=O)Nc1cccc(OC(F)(F)C(F)F)c1 [Compound 333] 100

----------
# System: corn
# procedure summary: Test B pre-/postemergence herbicide test
# Format: in vivo, Zea mays
# assay conditions: 500 g ai/ha; visual rating 0-100, 0 no effect, 100 complete control; preemergence
parameter measured: Plant response rating, Corn

>  <compound>
CCn1nc(C(C)(C)C)cc1C(=O)Nc1cccc(S(=O)(=O)C(F)(F)F)c1 [Compound 134]

>  <Plant response rating, Corn>
10

$$$$

Query: Plant response rating, Corn; subject: CCn1nc(C(C)(C)C)cc1C(=O)Nc1cccc(C#N)c1 [Compound 139] 40

Which measured Plant response rating, Corn value corresponds to CCn1nc(C(C)(C)C)cc1C(=O)Nc1nccc(OC)n1 [Compound 165] ? 0

Quick one: Plant response rating, Corn for CCn1nc(C(C)(C)C)cc1C(=O)Nc1cccc(C(=O)OCC2CC2)c1C [Compound 93] ? 10

Recorded Plant response rating, Corn of CCN(CC)C(=O)c1cccc(NC(=O)c2cn(C(C)(C)C)nc2C)c1 [Compound 184] , please. 0

Tell me the measured Plant response rating, Corn of CCNC(=O)c1cc(C)cc(NC(=O)c2cc(C(C)(C)C)nn2CC)n1 [Compound 150] , please. 20

Look up Plant response rating, Corn: C=CCN(C)C(=O)c1ccnc(NC(=O)c2cc(C(C)(C)C)nn2CC)c1 [Compound 159] 0

GET /values?readout=Plant response rating, Corn&item= CC(=NO)c1cccc(NC(=O)c2cc(C(C)(C)C)nn2C)c1 [Compound 102] 50

Plant response rating, Corn lookup needed for C=CCNC(=O)c1cccc(NC(=O)c2sc(C(C)(C)C)nc2C)c1 [Compound 202] , thanks. 20

----------
# System: giant foxtail
# procedure summary: Test B pre-/postemergence herbicide test
# Format: in vivo, Setaria faberi
# assay conditions: postemergence, 125 g ai/ha; visual rating, scale 0 (no effect) to 100 (complete control)
parameter measured: Foxtail, Giant plant response rating
Number, no unit, nothing else.

>  <molecule>
C#CCNC(=O)c1cccc(NC(=O)c2sc(C(C)(C)C)nc2C)c1 [Compound 203]

>  <Foxtail, Giant plant response rating>
0

$$$$
>  <molecule>
CC(=O)c1cccc(NC(=O)c2cn(C(C)C)nc2C)c1 [Compound 179]

>  <Foxtail, Giant plant response rating>
0

$$$$
>  <molecule>
C#CCOC(=O)c1cccc(NC(=O)c2cc(C(C)(C)C)nn2CC)c1 [Compound 84]

>  <Foxtail, Giant plant response rating>
10

$$$$
>  <molecule>
CCN(CC)C(=O)c1cccc(NC(=O)c2cn(C(C)(C)C)nc2C)c1 [Compound 184]

>  <Foxtail, Giant plant response rating>
30

$$$$

Which Foxtail, Giant plant response rating is listed for CCN(C)C(=O)c1cc(NC(=O)c2cc(C(C)(C)C)nn2CC)c(F)cc1F [Compound 254] ? 0

----------
# System: velvetleaf
# procedure summary: Test B pre-/postemergence herbicide test
# Assay type: in vivo, Abutilon theophrasti
# assay conditions: preemergence, 125 g ai/ha; 0 to 100 scale, 0 is no effect, 100 is complete control
# Method: […] At the same time, plants selected from these crop and weed species and also blackgrass (Alopecurus myosuroides Huds.), wheat (Triticum aestivum L.) and wild oat (Avena fatua L.) were treated with postemergence applications of test chemicals formulated in the same manner. […] Treated plants and controls were maintained in a greenhouse for 13 to 15 days, after which time all species were compared to controls and visually evaluated. […]
# Plant response rating, Velvetleaf values compiled below
I only need the number, thanks.

# example entries with known answers
>  <substance smiles>
CCC(=NO)c1cccc(NC(=O)c2cc(C(C)(C)C)nn2C)c1

>  <Plant response rating, Velvetleaf>
0

$$$$
>  <substance smiles>
C#CCOC(=O)c1cccc(NC(=O)c2cc(C(C)(C)C)nn2CC)c1

>  <Plant response rating, Velvetleaf>
0

$$$$

Consider the molecule C=CCN(C)C(=O)c1ccnc(NC(=O)c2cc(C(C)(C)C)nn2CC)c1 and give its measured Plant response rating, Velvetleaf. 80
